Entries and their measured growth follow.
- Test system: SF-268 CNS
- Protocol text: NCI-60 one-dose screen, 48 h (100 = growth as untreated, 0 = no growth, -100 = all killed)
- Condition info: 10 µM unless noted
Compounds without any hit were thinned out: in the full panel of roughly 83,000, 20% have a hit. The source made the active and inactive calls. How the source made its calls: active means growth percent below 10; inactive means the rest.

Reference set, count: 4
Compound	Result
O=C(C[n+]1ccccc1Cl)c1ccc2c(c1)CCCC2	99.5% (inactive)
CCCCOc1c(N)cccc1C(=O)OCCN(CC)CC	95.1% (inactive)
Cc1nccc2c3ccc(OCc4cn(Cc5ccc(Br)cc5)nn4)cc3n(CCCc3ccccc3)c12	81% (inactive)
O=C(Nc1ccc(-n2ccc3c(NC(=O)c4ccccc4)nccc32)cc1)c1cccc(C(F)(F)F)c1	26.9% (inactive)

Identify measured growth corresponding to CCOC(=O)C1=C(N)Oc2cc(OC)ccc2C1c1ccc(F)c(F)c1 (stereo unspecified)
51.3% (inactive)

Give the value of growth reported for the following: COc1ccc(-c2nn(-c3ccc(NC(=O)c4ccc(Cl)c(C(F)(F)F)c4)cc3)cc2-c2ccncc2)cc1Cl
14.5% (inactive)

Quick one: give measured growth for O=C(Nc1ccc(-n2ccc3c(NC(=O)c4ccccc4)ncnc32)cc1)c1ccc(Cl)c(C(F)(F)F)c1
18.7% (inactive)

Give growth for Nc1nc(Cl)c2c(C(F)(F)F)cn(CC3CCNCC3)c2n1
96.2% (inactive)

Give recorded growth. Nc1ncnc2c1c(-c1ccc(Oc3ccccc3)cc1)nn2C[C@H]1SSC[C@H]1O
20.1% (inactive)

Please supply the value of reported growth for the item O=C(CNc1cccnc1)Nc1ccc(C(=O)/C=C/c2ccc(Cl)cc2)cc1
91.4% (inactive)

Give recorded growth. CCOC(=O)c1noc2c1CCc1c-2cn(Cc2ccc(OC)cc2)c1-c1cc(OC)c(OC)c(OC)c1
41.5% (inactive)

Read off the recorded growth for COc1cc([C@@H]2c3cc4c(cc3C(OC3O[C@@H]5COC(C)O[C@H]5[C@H](O)[C@H]3O)C3COC(=O)[C@@H]32)OCO4)cc(OC)c1O (stereo partly specified)
23.9% (inactive)

Identify the reported growth for the following entry. COC(=O)Nc1nc2ccc(Sc3ccccc3)cc2[nH]1
37.8% (inactive)

Provide only the value of recorded growth for CC(C(C(=O)N1CCCCC1)N1CCCCC1)N1CCCCC1 (stereo unspecified)
115% (inactive)

Return reported growth. Input compound: COC(=O)c1ccc2c(c1)Oc1ccc(Cl)cc1-c1cc(C)nn1-2
80.5% (inactive)

Output measured growth for this item: Cc1ncc(CO)c(C(=O)O)c1O
94.4% (inactive)

Complete the entry with growth for O=C(CSc1nnc(-c2ccccc2)o1)Nc1ccc(C(=O)/C=C/c2ccccc2)cc1
65.8% (inactive)

Fill in growth for record O=C(Nc1ccc(-n2cc(-c3ccncc3)c(-c3ccc(O)c(Cl)c3)n2)cc1)c1ccc(Cl)c(Cl)c1
54.5% (inactive)

Answer with reported growth of COc1cc(NC(=O)C#Cc2ccccc2)c(OC)cc1Cl
39.8% (inactive)

Give reported growth value for CC(C)(C)OC(=O)N1CCN(CCn2cc(C(F)(F)F)c3c(Cl)ncnc32)CC1
69.5% (inactive)

Given CCCCOc1c(N)cc(Cl)cc1C(=O)OCCN(CC)CC , respond with its growth.
98.6% (inactive)

The measurements presented in this section are drawn from PubChem BioAssay (NCI).
